Data provenance: paper PMC6212790

Target: GST-Rok-C97-191 (Bacillus subtilis subsp. subtilis str. …, UniProt O34857 97-191)
Sequence: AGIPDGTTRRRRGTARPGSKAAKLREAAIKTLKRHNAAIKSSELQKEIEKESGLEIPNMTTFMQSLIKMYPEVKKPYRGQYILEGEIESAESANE
Experiment: protein binding microarray; Rok is a gene silencer of Bacillus subtilis; high values mean tight binding
Conditions: protein: recombinant; tags: GST (pTH5325, pDEST15-Magic modified); dsDNA, one strand shown
Over roughly 33,000 sequences, “e-score” has its median near -0.038; the highest 2% begin near 0.33. For the sample, the highest values were picked, then their nearest neighbours and some sequences at random.
Threshold rule: binding signal greater than or equal to 0.2 E-score is met; below that, not met.

* TCCTGCGA | not met
* CCGTAGCA | not met
* ATACTAGC | met
* ATTGGTAA | met
* GATCAATA | not met
* AGAAGTAT | met
* AAGTTCCA | not met
* AACAACTA | met
* AGATATAT | met
* ATACTATC | met
* AGTGGTAG | met
* CATCCAAC | not met
* GGCTATAC | not met
* ATATAGCA | met
* AACAACAA | not met
* ACGTCGAT | not met
* AGTTTCTC | met
* GACACTGC | not met
* CATTGATA | met
* AAAGTTCG | not met
* CGTTTATC | met
* TAGCACTA | not met
* CCACTATC | not met
* CCCAGCAG | not met
* TAGACGAA | not met
* GTTTTCTA | met
* CTACAAAC | not met
* ATAGGTAG | met
* ATCAGTGC | not met
* CATTCGAA | not met
* ACATATGT | met
* ATATACAT | met
* CTATATAG | met
* CTATCTTC | not met
* CTATCTAC | met
* CGATATAG | met
* GAGCCTAC | not met
* TAAATGCA | met
* GAAAGAAC | not met
* CCGTACTC | not met
* AGTTTCTG | not met
* CCACTCTC | not met
* CTATCTAA | met
* ATACAAAT | met
* CGTTTCTA | met
* ATAGTTAC | met
* AAAAAACA | not met
* CTTTACTC | not met
* AAACTTCA | not met
* GCAGCAAC | not met
* ACGTACTC | not met
* ACTCCAAA | not met
* TACAACAA | met
* AGCTCTTA | not met
* AACAGCTC | not met
* ATTGGTAC | met
* CGTAGTAC | not met
* AGTAGTAT | met
* AGCAGTAT | not met
* AATGGTAG | met
* CTCTTTCC | not met
* AAACAGCC | not met
* ATACAAAG | not met
* CTTTGCTC | not met
* GACAACAA | not met
* CGTAGTAG | met
* ACATGTTA | not met
* ACGATGCT | not met
* ATATCTAA | met
* AGGGTCGC | not met
* GGCGAAGA | not met
* CTACCTTA | met
* AGTTTCTA | met
* ATACGACC | not met
* CAACGGAC | not met
* ATAGTTCC | not met
* CTGACATC | not met
* ATATCTAC | met
* AATCAATA | met
* ATATAGCC | not met
* ATAGTTCG | met
* AAGTGACT | not met
* CTAGGCAC | not met
